// compounds with reported IC50 on IRAK4 (Homo sapiens (Human), UniProt Q9NWZ3), multi-publication
MEASUREMENT KIND: IC50 (nM)

COMPOUND	IC50 / nM
O=C(Nc1nc2ccc(-c3cnc(CO[C@H]4CCC[C@@H]4O)nc3)cc2s1)C1CC(N2CC[C@H](OC(F)F)C2)C1 (some centres unmarked)	2.17
CC(C)(O)c1cc2nn(CCS(=N)(=O)c3ccncc3)cc2cc1NC(=O)c1cccc(C(F)(F)F)n1 (centres unmarked)	0.2
COc1ccc(C(=O)N2CCC(CCN(C)C[C@H]3CC[C@H](n4cc(NC(=O)c5cnn6ccc(N7CCC[C@H](N)C7)nc56)c(C(F)F)n4)CC3)CC2)cc1N1CCC(=O)NC1=O	3.86
Cc1c(-c2cnc(CO[C@H]3CCC[C@@H]3O)nc2)ccc2nc(NC(=O)C3CC3)sc12	6.48
Cc1cc(-c2nc(C(=O)Nc3cc4cn(CCN5CC6(COC6)C5)nc4cc3C(C)(C)O)co2)ccn1	6.5
Cc1nc(C(=O)N2CCN([C@H]3C[C@@H](C(=O)Nc4nc5ccc(-c6cnc(CO[C@H]7CCC[C@@H]7O)nc6)cc5s4)C3)[C@@H](C)C2)co1	0.9
Cc1cc2nn(CCS(=N)(=O)c3ccccc3)cc2cc1NC(=O)c1cccc(C(F)(F)F)n1 (centres unmarked)	0.4
Cc1nc(C)c(C(=O)N2CCN([C@H]3C[C@@H](C(=O)Nc4nc5ccc(-c6cnc(CO[C@H]7CCC[C@@H]7O)nc6)cc5s4)C3)[C@@H](C)C2)s1	1.57

A. CN(CCC1CCN(C(=O)c2ccc(F)c(C3CCC(=O)NC3=O)c2)CC1)C(=O)[C@H]1CC[C@H](n2cc(NC(=O)c3cnn4ccc(N5CCOCC5)nc34)c(C(F)F)n2)CC1 (some centres unmarked)
B. C[C@H]1CN(C(=O)c2ccc(Cl)cn2)CCN1[C@H]1C[C@@H](C(=O)Nc2nc3ccc(-c4cnc(CO[C@H]5CCC[C@@H]5O)nc4)cc3s2)C1
input: In terms of reported IC50, does A or B have the smaller number? // caller expects the label of the chosen entry
output: B
(B: 0.81 nM, A: 9.82 nM)

----------
// compounds with reported pIC50 on IRAK4 (Homo sapiens (Human), UniProt Q9NWZ3), multi-publication
pIC50: −log10 of the molar value.
MEASUREMENT KIND: pIC50

Solved entries:
COMPOUND	READOUT NUMBER
C[C@@H]1CCCCN1C1CC(C(=O)Nc2nc3ccc(-c4cnc(CO[C@H]5CCC[C@@H]5O)nc4)cc3s2)C1 (stereo partly shown)	8.98
CCCOCc1ncc(-c2ccc3nc(NC(=O)[C@H]4C[C@@H](N5CCN(C(=O)C6CCOC6)C[C@@H]5C)C4)sc3c2)cn1 (stereo partly shown)	9.06
COc1cc2nn(CCC3CCNC3=O)cc2cc1NC(=O)c1coc(-c2ccnc(C)c2)n1 (stereo not shown)	8.08

I. CN1CC(F)(COc2c(-c3cnc(CO[C@H]4CCC[C@@H]4O)nc3)ccc3nc(NC(=O)C4CC4)sc23)C1
II. COc1c(-c2cnc(CO[C@H]3CCC[C@@H]3O)nc2)ccc2nc(NC(=O)C3CC(OC(C)(C)C)C3)sc12 (stereo partly shown)
input: In terms of reported pIC50, does I or II have the smaller number? // caller expects the label of the chosen entry
output: I

I. Cc1cc(-c2nc(C(=O)Nc3cc4cn(CCC5CCNC5=O)nc4cc3OC3COC3)co2)ccn1 (stereo not shown)
II. N=S(=O)(CCn1cc2cc(NC(=O)c3cccc(C(F)(F)F)n3)c(N3CCOCC3)cc2n1)c1ccnc2ccccc12 (stereo not shown)
input: Hi team, can someone confirm which has the larger pIC50: I or II ? Thanks. // caller expects the label of the chosen entry
output: II

----------
// compounds with reported IC50 on UniProt:Q9NWZ3, multi-publication
MEASUREMENT KIND: IC50 (nM)

COMPOUND	TEST TARGET	IC50 (nM)
N=S(=O)(CCn1cc2cc(NC(=O)c3cnn4cccnc34)c(N3CCOCC3)cc2n1)c1ccnc2ccccc12 (stereo not shown)	UniProt:Q9NWZ3	0.4

a. O=C1CCN(c2cc(C(=O)N3CCC4(CCN(C[C@H]5CC[C@H](n6cc(NC(=O)c7cnn8ccc(N9CCOCC9)nc78)c(C(F)F)n6)CC5)CC4)CC3)ccc2Cl)C(=O)N1
b. O=C(Nc1nc2ccc(-c3cnc(CO[C@H]4CCC[C@@H]4O)nc3)cc2s1)C1CC(N2CCOCC3(CC3)C2)C1 (stereo partly shown)
input: Hi team, can someone confirm which has the larger IC50: a or b ? Thanks. // caller expects the label of the chosen entry
output: a
